# reported log10 of O2 permeability; entries follow
ENDPOINT LABEL: log10 of O2 permeability (log10 of the value in Barrer)

COMPOUND | log10 of O2 permeability
*Oc1c(C)cc(C(C)(C)c2cc(C)c(OC(=O)c3cc(C(*)=O)cc(C(C)(C)C)c3)c(Br)c2)cc1Br (repeat unit) | 0.80
*c1ccc2c(-c3c(O)ccc4cc(N5C(=O)c6ccc(C(c7ccc8c(c7)C(=O)N(*)C8=O)(C(F)(F)F)C(F)(F)F)cc6C5=O)ccc34)c(O)ccc2c1 (repeat unit) | -0.01
*Oc1ccc(C(c2ccc(OC(=O)c3cccc(C(*)=O)c3)cc2)(C(F)(F)F)C(F)(F)F)cc1 (repeat unit) | 0.66
*c1ccc(Oc2cccc(-n3c(=O)c4cc5c(=O)n(*)c(=O)c5cc4c3=O)c2)cc1 (repeat unit) | -0.51
*C(=C(*)c1ccc2c(c1)C(C)(C)c1ccccc1-2)c1ccc([Si](C)(C)C)cc1 (repeat unit) | 2.66
*c1c(C)cc(Cc2cc(C)c(N3C(=O)c4ccc(C(c5ccc6c(c5)C(=O)N(*)C6=O)(C(F)(F)F)C(F)(F)F)cc4C3=O)c(C)c2)cc1C (repeat unit) | 1.01
*c1c(C)c(C)c(-n2c(=O)c3cc4oc5cc6c(cc5oc4cc3c2=O)C2(CC(C)(C)c3cc4oc5cc7c(=O)n(*)c(=O)c7cc5oc4cc32)CC6(C)C)c(C)c1C (repeat unit) | 2.18

---

Label True when N2 permeability < 0.7 Barrer; otherwise False.

COMPOUND | DISCRETE LABEL
*c1cc(C(c2ccc(O)c(N3C(=O)c4ccc(C(c5ccc6c(c5)C(=O)N(*)C6=O)(C(F)(F)F)C(F)(F)F)cc4C3=O)c2)(C(F)(F)F)C(F)(F)F)ccc1O (repeat unit) | True
*c1ccc2c(c1)C1c3ccccc3C2c2cc(N3C(=O)c4ccc(C(c5ccc6c(c5)C(=O)N(*)C6=O)(C(F)(F)F)C(F)(F)F)cc4C3=O)ccc21 (repeat unit) | False
*C(=O)c1ccc(C2(c3ccc(C(=O)c4ccc(Oc5ccc(C(=O)c6cccc(C(=O)c7ccc(Oc8ccc(*)cc8)cc7)c6)cc5)cc4)cc3)OC(=O)c3ccccc32)cc1 (repeat unit) | True
*C(=C(*)c1ccccc1)c1ccccc1 (repeat unit) | False
*c1ccc(-c2ccc(Oc3ccc(C4(c5ccc(Oc6ccc(-c7ccc(N8C(=O)c9ccc(C(c%10ccc%11c(c%10)C(=O)N(*)C%11=O)(C(F)(F)F)C(F)(F)F)cc9C8=O)cc7)cc6C(F)(F)F)cc5)c5ccccc5C(=O)N4c4ccccc4)cc3)c(C(F)(F)F)c2)cc1 (repeat unit) | False
*Oc1ccc(C(c2ccc(Oc3ccc(C(=O)c4ccc(C(c5ccc(C(=O)c6ccc(*)cc6)cc5)(C(F)(F)F)C(F)(F)F)cc4)cc3)cc2)(C(F)(F)F)C(F)(F)F)cc1 (repeat unit) | False
*Oc1ccc(S(=O)(=O)c2ccc(Oc3ccc(Oc4ccc(*)cc4)cc3)cc2)cc1 (repeat unit) | True
*c1ccc(Oc2ccc(Oc3ccc(*)cc3)c3c2C2c4ccccc4C3c3ccccc32)cc1 (repeat unit) | True
*/C(C)=C(/*)[Si](C)(C)CCCCCCCC (repeat unit) | False

---

ENDPOINT LABEL: CO2 permeability (Barrer)

COMPOUND | ENDPOINT LABEL | ENDPOINT RESULT
*NCCCCCC(*)=O (repeat unit) | CO2 permeability | 0.165
*Oc1ccc(S(=O)(=O)c2ccc(Oc3ccc(C(C)(C)c4ccc(*)c(C(OC)(C(F)(F)F)C(F)(F)F)c4)cc3C(OC)(C(F)(F)F)C(F)(F)F)cc2)cc1 (repeat unit) | CO2 permeability | 7.7
*=CC1CC(C=*)C2C(=O)N(C3CCCCC3)C(=O)C12 (repeat unit) | CO2 permeability | 13.7
*c1ccc(Oc2ccc(C(c3ccc(Oc4ccc(-n5c(=O)c6cc7c(=O)n(*)c(=O)c7cc6c5=O)cc4C(F)(F)F)cc3)(C(F)(F)F)C(F)(F)F)cc2)c(C(F)(F)F)c1 (repeat unit) | CO2 permeability | 24.6
*Oc1ccc(S(=O)(=O)c2ccc(Oc3ccc(Oc4ccc(*)cc4)cc3)cc2)cc1 (repeat unit) | CO2 permeability | 4.3
*/C=C/c1ccc(*)cc1[Si](CC)(CC)CC (repeat unit) | CO2 permeability | 24
